Test: inhibitors of PMA/ionomycin-induced NF-kB reporter, primary screen, antigen receptor NF-kB inhibitor project, cell-based, HEK-293 luciferase reporter, luminescence (AID 465);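 note: 0% = stimulated DMSO wells and 100% = 10 µM reference inhibitor 5653914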
Details: HEK-293 NF-kB luciferase reporter, at 3 µM, hits give high values
Screen size: about 62,000 compounds; about 130 (0.21%) were called active. The sample holds actives, similar compounds and a random draw of the others, so the mix is not that of the screen.
measurement.type: inhibition (%)
Answers are plain numbers, in %.

Worked cases, answers included:
molecule	measurement.type	reported.value
CC(C)Cc1ccc(S(=O)(=O)N2CCN(C(=O)c3ccco3)CC2)cc1	inhibition	9.1
Cc1ccn2cc(C(=O)NC3CCN(Cc4ccccc4)CC3)nc2c1	inhibition	6.4
Cc1cc(C)c(NC(=O)CS(=O)CC(=O)Nc2cccnc2)c(C)c1 (centres undefined)	inhibition	18.1
CCOCCc1c(O)nc(SCC(=O)NCc2ccco2)[nH]c1=O	inhibition	2.4
Cc1ccsc1C(=O)OCC(=O)c1cc(C)n(CC2CCCO2)c1C (centres undefined)	inhibition	55.2
O=c1cccc(-c2ccc(Br)cc2)o1	inhibition	10.6
CC(=O)Nc1ccc(NS(=O)(=O)c2cc(C)sc2C)cc1	inhibition	11.3
O=C(O)CCCC(=O)Nc1ccccc1-n1ccnc1	inhibition	-1.2

Now look at this one.
Ask: Look up inhibition: O=C(COC(=O)C12CC3CC(CC(C3)C1)C2)NCc1ccco1
Result: 3.7

----------
Assay: inhibitors of PMA/ionomycin-induced NF-kB reporter, primary screen, antigen receptor NF-kB inhibitor project, cell-based, HEK-293 luciferase reporter, luminescence (AID 465);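 note: 0% = stimulated DMSO wells and 100% = 10 µM reference inhibitor 5653914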
Conditions: HEK-293 NF-kB luciferase reporter, at 3 µM, hits give high values
In all, about 62,000 compounds went through this assay and about 130 (0.21%) were called active. Only a selection was taken, and actives are over-represented in it overall.
measurement.type: inhibition (%)
Numbers only, in %.

Worked cases, answers included:
Cc1nc2c(-c3ccc(F)cc3)c(C)nn2c(C)c1CCC(=O)N1CCN(c2ccccn2)CC1 0.2
Cc1ccc(-c2noc(CCC(=O)Nc3ccccc3N3CCN(C)CC3)n2)cc1 -2
Cc1cc(Cl)c(S(=O)(=O)NCCC(=O)O)cc1OCC(N)=O 1.4

Now look at this one.
Ask: Look up inhibition: COc1cc(OC)cc(C(=O)Nc2ncc3c(n2)CC(C)(C)CC3=O)c1
Result: 18.8
